experiment: Stability test in solution (pH 1.2 and pH 6.5); format: physicochemical; conditions: hydrochloric acid solution pH 1.2, 37° C., 1 hour
Catalogue of compounds with associated Compound's percent residue (%) pH 1.2

Previously resolved entries follow.
COMPOUND	Compound's percent residue (%) pH 1.2
CCCO[C@@H]1C[C@@H]2[C@H]([C@]1(N)C(=O)OC(C)OC(=O)O[C@@H]1C[C@@H]3CC[C@@]1(C)C3(C)C)[C@@]2(F)C(=O)O (single isomer, unassigned) [Example 18-A]	107%
C[C@@H](OC(=O)C12CC3CC(CC(C3)C1)C2)OC(=O)[C@@]1(N)[C@H]2[C@@H](C[C@H]1OCc1ccc(Cl)nc1)[C@]2(F)C(=O)O [Example 27]	100%
CC(OC(=O)O[C@H]1C[C@H]2CC[C@]1(C)C2(C)C)OC(=O)[C@@]1(N)[C@H]2[C@@H](C[C@H]1OCc1ccc(F)cc1)[C@]2(F)C(=O)O (some centres unmarked) [Example 19-A]	98%

What value of Compound's percent residue (%) pH 1.2 has been recorded for this entry: CC(C)CCO[C@@H]1C[C@@H]2[C@H]([C@]1(N)C(=O)O[C@@H](C)OC(=O)C13CC4CC(CC(C4)C1)C3)[C@@]2(F)C(=O)O [Example 29]
102%

What value of Compound's percent residue (%) pH 1.2 has been recorded for this entry: N[C@]1(C(=O)OCOC(=O)C23CC4CC(CC(C4)C2)C3)[C@H]2[C@@H](C[C@H]1OCc1ccc(F)cc1)[C@]2(F)C(=O)O [Example 7]
101%

###

Catalogue of compounds with associated Compound's percent residue (%) pH 6.5
assay: Stability test in solution (pH 1.2 and pH 6.5); assay type: physicochemical; conditions: 20 mM phosphate buffer pH 6.5, 37° C., 1 hour
A number alone suffices; assume %.

Previously resolved entries follow.
COMPOUND	Compound's percent residue (%) pH 6.5
CCCO[C@@H]1C[C@@H]2[C@H]([C@]1(N)C(=O)OC(C)OC(=O)O[C@H]1C[C@@H](C)CC[C@@H]1C(C)C)[C@@]2(F)C(=O)O (single isomer, unassigned) [Example 15-B]	103
CC(OC(=O)O[C@H]1C[C@H]2CC[C@]1(C)C2(C)C)OC(=O)[C@@]1(N)[C@H]2[C@@H](C[C@H]1OCc1ccc(F)cc1)[C@]2(F)C(=O)O (single isomer, unassigned) [Example 19-B]	106
CC(OC(=O)O[C@@H]1C[C@@H]2CC[C@@]1(C)C2(C)C)OC(=O)[C@@]1(N)[C@H]2[C@@H](C[C@H]1OCc1ccc(F)cc1)[C@]2(F)C(=O)O (single isomer, unassigned) [Example 17-A]	97
CCCO[C@@H]1C[C@@H]2[C@H]([C@]1(N)C(=O)O[C@@H](C)OC(=O)O[C@@H]1C[C@H](C)CC[C@H]1C(C)C)[C@@]2(F)C(=O)O [Example 13]	98

Now consider a different compound.
What value of Compound's percent residue (%) pH 6.5 has been recorded for this entry: C[C@@H](OC(=O)C12CC3CC(CC(C3)C1)C2)OC(=O)[C@@]1(N)[C@H]2[C@@H](C[C@H]1OCc1cccc(Cl)n1)[C@]2(F)C(=O)O [Example 24]
96

###

target: human metabotropic glutamate receptor mGluR2 (Homo sapiens (Human), UniProt Q14416); assay: [35S]GTPγS binding test, mGluR2; settings: inhibition of glutamate (20 μM)-stimulated [35S]GTPγS specific binding, CHO cell membranes
Sequence (Q14416 19-872): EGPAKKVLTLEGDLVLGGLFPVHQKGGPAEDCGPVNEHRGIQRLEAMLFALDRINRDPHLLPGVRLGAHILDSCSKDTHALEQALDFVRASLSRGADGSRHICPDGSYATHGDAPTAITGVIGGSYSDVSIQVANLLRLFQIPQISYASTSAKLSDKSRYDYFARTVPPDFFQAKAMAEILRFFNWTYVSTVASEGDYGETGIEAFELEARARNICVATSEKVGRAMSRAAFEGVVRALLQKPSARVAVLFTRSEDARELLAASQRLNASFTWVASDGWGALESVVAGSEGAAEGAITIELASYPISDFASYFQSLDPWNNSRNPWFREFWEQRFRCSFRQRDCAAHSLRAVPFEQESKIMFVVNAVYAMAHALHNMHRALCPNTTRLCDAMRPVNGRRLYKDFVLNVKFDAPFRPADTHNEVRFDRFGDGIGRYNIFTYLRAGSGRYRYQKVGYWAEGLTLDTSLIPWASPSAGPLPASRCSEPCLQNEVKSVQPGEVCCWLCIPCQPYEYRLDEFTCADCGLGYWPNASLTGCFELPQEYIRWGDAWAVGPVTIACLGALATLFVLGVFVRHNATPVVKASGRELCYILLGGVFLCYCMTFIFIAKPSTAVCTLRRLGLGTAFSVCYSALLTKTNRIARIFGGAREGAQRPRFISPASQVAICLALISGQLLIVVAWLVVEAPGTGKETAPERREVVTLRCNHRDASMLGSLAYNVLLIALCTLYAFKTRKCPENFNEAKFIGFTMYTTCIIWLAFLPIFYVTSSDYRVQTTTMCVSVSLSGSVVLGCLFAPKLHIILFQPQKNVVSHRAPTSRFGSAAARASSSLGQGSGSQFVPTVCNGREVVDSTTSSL
Catalogue of molecules with associated IC50
A number alone suffices; assume nM.

Previously resolved entries follow.
MOLECULE	EXPERIMENTAL_SYSTEM	IC50 / nM
N[C@]1(C(=O)O)[C@H]2[C@@H](C[C@H]1OCc1cc[nH]c(=O)c1)[C@]2(F)C(=O)O [Compound (II)-13]	human metabotropic glutamate receptor mGluR2 (Homo sapiens (Human), UniProt Q14416)	37.3
N[C@]1(C(=O)O)[C@H]2[C@@H](C[C@H]1OCc1ccc(F)cc1)[C@@H]2C(=O)O [Compound (II)-15]	human metabotropic glutamate receptor mGluR2 (Homo sapiens (Human), UniProt Q14416)	32.7

Now consider a different molecule.
Give the reported IC50 for N[C@]1(C(=O)O)[C@H]2[C@@H](C[C@H]1OCc1ccc(Cl)cn1)[C@]2(F)C(=O)O [Compound (II)-11] (system: human metabotropic glutamate receptor mGluR2 (Homo sapiens (Human), UniProt Q14416)).
28.4
